- Test system: SN12C renal
- measurement_protocol: NCI-60 one-dose screen, 48 h
- measurement_parameters: 10 µM unless noted
This is part of a sample that, as a whole, favours compounds with a hit. Of some 83,000 tested, about 20% had one in any assay. Calls of active or inactive are those of the source. Rule for the calls: active = growth percent below 10; inactive = the rest.
Outcomes: true (active), false (inactive)

>>> group_label("COc1ccc(-c2cc(-c3cc(OC)c(OC)c(OC)c3)nc(N3CCOCC3)c2C#N)cc1")
"false"
>>> group_label("O=C(N/N=C/[C@H](O)[C@H](O)[C@H](O)CO)c1ccc(NC(=O)c2cccnc2)cc1")
"false"
>>> group_label("Cc1nc(NC(=O)COc2ccc(/C=C3\\Cc4ccc(Cl)cc4C3=O)cc2)sc1C")
"false"
>>> group_label("C=C1CC[C@@]2(C#N)[C@H]3[C@H](CC[C@@H]2C)[C@@H](C)C[C@@H](CC(C)(C)C#N)[C@H]13")
"false"
>>> group_label("O=C1c2cccc3cccc(c23)C(=O)N1Nc1nc(N2CCOCC2)nc(N2CCN(c3ccccc3)CC2)n1")
"false"
>>> group_label("Nc1nn(C(=O)Nc2ccc(Cc3ccccc3)cc2)c2ccc(Cl)cc12")
"false"
>>> group_label("C=C(C)C1CCC2(C)OC2C1 (stereo not drawn)")
"false"
>>> group_label("Cc1ccc(-c2cnc3sc(C(=O)NCCc4ccccc4)c(C)n23)cc1")
"false"
>>> group_label("CNC(=O)c1cc(-n2ccc3cc(NC(=O)c4ccc(N5CCOCC5)c(C(F)(F)F)c4)ccc32)ccn1")
"false"
>>> group_label("COc1ccc2c(c1)nc(NNC(=O)c1cnccn1)c1cccn12")
"false"
>>> group_label("CC1=C([Se]CC(OC(=O)[C@@H](CSSC(C)(C)C)NC(=O)OC(C)(C)C)C(=O)NC(C)(C)C)C(=O)c2ccccc2C1=O (stereo partly drawn)")
"true"
>>> group_label("CC(=O)CC(c1ccccc1)c1c(C)[nH]c2ccccc12 (stereo not drawn)")
"false"
>>> group_label("CCc1nnc(NC(=O)c2nnn(-c3ccccc3)c2-c2ccco2)s1")
"false"
>>> group_label("COc1ccc(C(=O)/C=C/c2sc(Cl)nc2Cl)cc1")
"false"
>>> group_label("NCCCNc1nc2ccccc2c2c(=O)c3cc(OC(F)(F)F)ccc3sc12")
"false"
>>> group_label("COc1cccc(OC)c1C(=O)N[C@@H]1C(=O)N2[C@@H]1SC(C)(C)[C@@H]2C(=O)O")
"false"
>>> group_label("COc1cccc(Oc2ccccc2NC(=O)CNC(=O)c2cccc3ccccc23)c1")
"false"
>>> group_label("O=C(COc1ccc(/C=C2\\Cc3ccc(Cl)cc3C2=O)cc1)Nc1nc2ccccc2s1")
"false"
>>> group_label("O=c1c2cc(F)ccc2sc2c(NCCN3CCOCC3)nc3ccccc3c12")
"false"
>>> group_label("CCCCOc1nc2ccc(OC)cc2cc1-c1cc(-c2ccc(Cl)cc2)nc(-c2ccc(Cl)cc2)c1")
"false"
>>> group_label("CN1CCN(c2ccc(-c3ccc4ncc(C#N)c(Nc5ccc(F)c(Cl)c5)c4c3)cn2)CC1")
"false"
>>> group_label("COc1cc(CNS(=O)(=O)c2ccc(C)cc2)ccc1OCc1cn(-c2ccccc2)nn1")
"false"
>>> group_label("N#Cc1c(-c2ccc(Cl)cc2)nc2c(c(-c3ccccc3)nn2-c2ccccc2)c1-c1ccc(O)cc1")
"true"
>>> group_label("O=C(/C=C/c1ccc([N+](=O)[O-])o1)NNC(=O)c1cc2ccccc2cc1O")
"true"
>>> group_label("COc1ccc2c(c1OC)C(=O)O[C@H]2[C@H]1c2c(cc3c(c2OC)OCO3)CCN1C")
"false"
>>> group_label("COc1ccc(OC)c(/C=C/c2nnc(Nc3ccccc3)o2)c1")
"false"
>>> group_label("C[C@]12CC[C@@H]3c4cc(OC(F)F)c(OS(N)(=O)=O)cc4CC[C@H]3[C@@H]1CC[C@@H]2O")
"false"
>>> group_label("O=C1CN(CCN2CC(=O)N(Cc3ccccc3)C(=O)C2)CC(=O)N1Cc1ccccc1")
"false"
>>> group_label("COc1cc(C2CC(c3cccc(Br)c3)=NN2C(C)=O)cc(OC)c1OC (stereo not drawn)")
"false"
>>> group_label("Cc1cccc(NCc2cn(-c3ccc(C(=O)O)cc3)nc2-c2ccc(C(=O)O)cc2)n1")
"false"
>>> group_label("O=C(CSc1nccc(Nc2ccc(S(=O)(=O)Nc3nccs3)cc2)n1)c1ccc(C(F)(F)F)cc1")
"false"
>>> group_label("O=C(Cc1ccc2c(c1)OCCO2)Nc1nc2ccc(F)cc2s1")
"false"
>>> group_label("CCCCCCN1C(=O)/C(=c2\\sc3n(c2=O)C2C(NN=3)N(CC)C(=O)N2CC)c2ccccc21 (stereo not drawn)")
"false"
>>> group_label("Cc1nc2ccccc2c(/C=C/c2ccc(Cl)cc2)c1C(=O)/C=C/c1cccs1")
"false"
>>> group_label("COc1cc(C(=O)c2cc(C)c3[nH]c4ccc(O)cc4c3c2C)cc(OC)c1OC")
"false"
>>> group_label("CN(C)c1ccc(/C=N\\Nc2cc(=O)[nH]c3ccc(Cl)cc23)cc1")
"false"
>>> group_label("O=C(N/N=C/[C@H](O)[C@@H](O)[C@@H](O)[C@H](O)CO)c1ccc(NC(=O)c2cccnc2)cc1")
"false"
>>> group_label("COc1cc2oc(-c3ccc(O)cc3)cc(=O)c2c(O)c1-c1c(OC)cc(O)c2c(=O)cc(-c3ccc(O)cc3)oc12")
"false"
